test system: L1210 leukemia ip in BDF1 mice, survival T/C; assay: NCI In Vivo Anticancer Drug Screen. Data for tumor model L1210 Leukemia (intraperitoneal) in B6D2F1 (BDF1) mice; conditions: endpoint: mean survival time; dose: 100.0 mg/kg/injection; schedule: Q01DX001 (ip); vehicle: other; higher = longer survival
Inconclusive results and toxic doses are left out.
Consider the following molecules; for each one, report its T/C.

[in] T/C for CNC(=O)O/N=C(C)/C(C)=N/OC(=O)NC ?
[out] 93 % of control

[in] Fill blank: measured T/C of the molecule CCCOP(=S)(NCCCOC)OCCC is ____.
[out] 96 % of control

[in] Entry under review: CN(C)c1ccc([N+](=O)[O-])cc1[N+](=O)[O-] . Reported T/C?
[out] 111 % of control

[in] So what's the measured T/C for this one? CNS(=O)(=O)c1ccc(NC(=O)C(Cl)Cl)cc1
[out] 101 % of control

[in] Would you kindly share the measured T/C for Nc1cncc2ncc(-c3ccc(Cl)c(Cl)c3)nc12 ?
[out] 98 % of control

[in] State the recorded T/C for this entry: Clc1nccc2n[nH]nc12
[out] 94 % of control

[in] Returns the measured T/C for the input molecule. Input: S=c1[nH]c(-c2ccccc2)cs1
[out] 96 % of control

[in] If you can, please state the reported T/C value of COCCCNP(=S)(OC)OC .
[out] 98 % of control

[in] Param item = CC1CC2(CCC1=O)OCCO2 (centres undefined) ; retrieve measured T/C.
[out] 95 % of control

[in] May I ask what T/C has been recorded for CC1=C(/C=C/C(C)=C/C=C/C(C)=C/CO)C(C)(C)CCC1 ?
[out] 100 % of control

[in] Reported T/C, molecule CCOC(=O)C(C)(c1c(C)n(C)c2ccccc12)c1c(C)n(C)c2ccccc12 : ____
[out] 91 % of control

[in] Dear colleague, I am looking for the recorded T/C of the following molecule: C=CCn1cnc2c(=S)nc[nH]c21
[out] 116 % of control

[in] Look up T/C: NS(=O)(=O)c1ccc(N/N=c2\c(=O)c(=O)c3ccccc3c2=O)cc1
[out] 101 % of control

[in] // returns reported T/C for input Cc1ccccc1C(=O)c1ccccc1C
[out] 102 % of control

====

test system: L1210 leukemia ip in BDF1 mice, survival T/C; assay: NCI In Vivo Anticancer Drug Screen. Data for tumor model L1210 Leukemia (intraperitoneal) in B6D2F1 (BDF1) mice; conditions: endpoint: mean survival time; dose: 25.0 mg/kg/injection; schedule: Q04DX002 (ip); vehicle: saline; higher = longer survival
Toxic doses and inconclusive results are not listed.
readout.type: T/C

[in] Which T/C reading was recorded for the compound CCCCCCCCCN1CCCC(OC(=O)N(C)C)C1 (stereo not given) ?
[out] 103 % of control

[in] # get_value(readout='T/C', item= [Cl][Pd][Cl].[NH-]C1CCCC1.[NH-]C1CCCC1 )
[out] 97 % of control

[in] Recorded T/C for CCN(CC)CCCC(C)Nc1ccnc2cc(Cl)ccc12 (stereo not given) , please?
[out] 95 % of control

[in] Which T/C reading was recorded for the compound CCSc1ccc2c(cc1=O)C(N)CCc1cc(OC)c(OC)c(OC)c1-2 (stereo not given) ?
[out] 95 % of control

[in] Requested read-out: T/C. Entry: C=CC[N+](CCO)(CCO)CCCCCCCCCCCCCCCCCC
[out] 97 % of control

====

system: L1210 leukemia ip in BDF1 mice, survival T/C; test: NCI In Vivo Anticancer Drug Screen. Data for tumor model L1210 Leukemia (intraperitoneal) in B6D2F1 (BDF1) mice; conditions: endpoint: mean survival time; dose: 400.0 mg/kg/injection; schedule: Q04DX003 (ip); vehicle: saline with Tween-80; higher = longer survival
Inconclusive results and toxic doses are left out.
Exercise: for every item that follows, state its recorded T/C.

[in] Form field: reported T/C of CC(=O)Oc1ccc(OC(C)=O)c2c1C(=O)CCCC2=O
[out] 96 % of control

[in] Please report the recorded T/C for CCCCCCCCSCCO .
[out] 98 % of control

[in] // returns reported T/C for input CN(C)c1ccc(N=Nc2nccs2)cc1
[out] 88 % of control

[in] Record request: T/C value, item Nc1c(Br)cc2c(c1Br)Cc1cc([N+](=O)[O-])ccc1-2
[out] 98 % of control

[in] Given the compound Oc1c(Br)ccc2c(O)c(Br)ccc12 , what is its reported T/C?
[out] 95 % of control

[in] I would be grateful if you could share the reported T/C for CCCCCCCCCCCCCCCCCC[Se][Se]CCCCCCCCCCCCCCCCCC .
[out] 86 % of control

[in] Given the entry Oc1ccc(O)c(CCCc2cc(O)ccc2O)c1 , report its measured T/C.
[out] 90 % of control

[in] Reported T/C, compound CC(C)COC(C[N+](=O)[O-])C(Cl)(Cl)Cl (stereo unspecified) : ____
[out] 92 % of control

[in] Recorded T/C for c1cc2cccc3c2c(c1)c1sc2c4cccc5cccc(c54)c2c31 , please?
[out] 94 % of control

[in] Consider the compound O=C(NCCCCOc1ccc([N+](=O)[O-])cc1Cl)c1ccc(S(=O)(=O)F)cc1 and give its measured T/C.
[out] 111 % of control

[in] Which T/C reading was recorded for the compound O=C1OC(=O)C2C3C=CC(C12)C1C2C(=O)OC(=O)C2C31 (stereo unspecified) ?
[out] 91 % of control

[in] What T/C value was documented for this compound, CC12CCC(C(C(=O)O)C1=O)C2(C)C (stereo unspecified) ?
[out] 100 % of control

[in] Form field: reported T/C of CC1(CC(O)(C(F)(F)F)C(F)(F)F)NC(=O)NC1=O (stereo unspecified)
[out] 91 % of control

[in] # lookup: T/C of CCOC(=O)c1ccc(NC(=O)CC(C)=O)cc1
[out] 97 % of control

[in] For the compound shown here, CCCCCCC(C)O[Si](C)c1ccc(-c2ccccc2)cc1 (stereo unspecified) , give the reported T/C.
[out] 100 % of control

[in] What does the data say about its T/C? Entry: Cc1ccc(S(=O)(=O)NC(=O)O/N=C/c2ccccn2)cc1
[out] 104 % of control

====

Test system: L1210 leukemia ip in BDF1 mice, survival T/C
Experiment: NCI In Vivo Anticancer Drug Screen. Data for tumor model L1210 Leukemia (intraperitoneal) in B6D2F1 (BDF1) mice
Details: endpoint: mean survival time; dose: 200.0 mg/kg/injection; schedule: Q01DX001 (ip); vehicle: saline with Tween-80; higher = longer survival
Procedure: The antitumor activity of compounds was measured in mice bearing transplantable tumors. Survival or tumor size were measured and the results are expressed as the measurement made in the treated group (T) divided by the measurement made in the vehicle treated control group (C). The tumor model used in this assay is L1210 Leukemia (intraperitoneal) in B6D2F1 (BDF1) mice
Inconclusive results and toxic doses are left out.
readout.type: T/C

[in] # get_value(readout='T/C', item= O=C(OCC(O)C(O)C(O)C(O)COC(=O)c1ccccc1)c1ccccc1 (stereo unspecified) (tested in a mixture with another compound) )
[out] 100 % of control

[in] Requested read-out: T/C. Entry: O=C1C=CC2C=CC1C(C(=O)O)C2C(=O)O (stereo unspecified) (tested in a mixture with another compound)
[out] 90 % of control

[in] GET /values?readout=T/C&item= O=C(Nc1ccccc1)C(Cl)S(=O)(=O)O (stereo unspecified)
[out] 97 % of control

[in] Fill in: T/C of CC(C)(C)c1cc(C(C)(C)C)c(O)c(C(C)(C)C)c1 is ___
[out] 95 % of control

[in] Form field: reported T/C of Nc1ncnc(N)c1N
[out] 105 % of control

[in] Record request: T/C value, item CCOC(=O)c1cnc(SC)nc1NNc1ccc([N+](=O)[O-])cc1
[out] 92 % of control

[in] Sample COC(=O)C1(COC(C)=O)CC1 — what was its T/C?
[out] 103 % of control

[in] Look up T/C for this compound: CC12CCC(CC1)C(O)C2 (stereo unspecified)
[out] 101 % of control

[in] Give its T/C value. Item: COC(=O)c1cccc(O)c1
[out] 91 % of control

[in] // returns reported T/C for input O=C(Nc1ccc(Cl)cc1)OCC#CCOC(=O)Nc1ccc(Cl)cc1
[out] 88 % of control

[in] Fill blank: measured T/C of the compound COc1ccc(C2(C)OC(=O)c3ccccc32)c2ccccc12 (stereo unspecified) is ____.
[out] 100 % of control

====

I'd be grateful if you could share measured T/C for these entries.
test system: L1210 leukemia ip in BDF1 mice, survival T/C; assay: NCI In Vivo Anticancer Drug Screen. Data for tumor model L1210 Leukemia (intraperitoneal) in B6D2F1 (BDF1) mice; conditions: endpoint: mean survival time; dose: 75.0 mg/kg/injection; schedule: Q04DX003 (ip); vehicle: saline; higher = longer survival
Toxic doses and inconclusive results are not listed.

[in] Any idea what T/C came out for CCS(=O)(=O)C(=CN(C)C)S(=O)(=O)CC on L1210 leukemia ip in BDF1 mice, survival T/C?
[out] 97 % of control

[in] For the record COC(=O)c1cccc2ccc3ccccc3c12 , what value of T/C is listed for L1210 leukemia ip in BDF1 mice, survival T/C?
[out] 97 % of control

[in] What reported T/C corresponds to CCCCCCCCCCCCCCNCCC(=O)O on L1210 leukemia ip in BDF1 mice, survival T/C?
[out] 101 % of control

[in] Lookup: T/C / L1210 leukemia ip in BDF1 mice, survival T/C / O=C1C=CC(=C(c2ccccc2)c2ccccc2)C=C1
[out] 90 % of control
